biological target: Orexin/Hypocretin receptor type 1 (Homo sapiens, UniProt O43613); test: Antagonist activity at OX1R expressed in dihydrofolate reductase deficient CHO cells assessed as inhibition of orexin A-induced intracellular calcium mobilization by FLIPR assay
Sequence (O43613 whole entry): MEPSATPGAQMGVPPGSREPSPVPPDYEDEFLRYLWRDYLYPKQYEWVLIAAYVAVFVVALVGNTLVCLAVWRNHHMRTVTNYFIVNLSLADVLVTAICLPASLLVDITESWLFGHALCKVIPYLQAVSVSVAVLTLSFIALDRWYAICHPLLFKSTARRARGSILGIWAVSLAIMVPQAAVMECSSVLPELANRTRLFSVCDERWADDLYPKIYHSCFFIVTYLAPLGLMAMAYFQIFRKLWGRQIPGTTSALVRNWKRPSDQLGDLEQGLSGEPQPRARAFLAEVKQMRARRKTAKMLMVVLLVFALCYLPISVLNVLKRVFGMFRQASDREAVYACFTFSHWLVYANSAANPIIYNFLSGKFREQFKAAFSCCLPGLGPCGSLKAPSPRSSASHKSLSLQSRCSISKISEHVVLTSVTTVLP
metric: IC50 (nM)

Solved cases (5 shown):
compound: COc1ccc(S(=O)(=O)N2CCOC23CCN(C(=O)Nc2ccccc2)CC3F)cc1 (racemic)
testTarget: Orexin/Hypocretin receptor type 1 (Homo sapiens, UniProt O43613)
unitAbbrev: nM
IC50: 1600
//
compound: O=S(=O)(c1ccccc1)N1CCOC12CCN(c1cnc3ccccc3n1)CC2
testTarget: Orexin/Hypocretin receptor type 1 (Homo sapiens, UniProt O43613)
unitAbbrev: nM
IC50: 1600
//
compound: O=C(Nc1ccccc1)N1CCC2(OCCN2S(=O)(=O)c2ccccc2)[C@H](F)C1 (mixture of isomers)
testTarget: Orexin/Hypocretin receptor type 1 (Homo sapiens, UniProt O43613)
unitAbbrev: nM
IC50: 280
//
compound: COc1ccc(S(=O)(=O)N2CCOC23CCN(C(=O)Nc2ccccc2)CC3F)cc1OC (stereo not drawn)
testTarget: Orexin/Hypocretin receptor type 1 (Homo sapiens, UniProt O43613)
unitAbbrev: nM
IC50: 1500
//
compound: COc1cccc(S(=O)(=O)N2CCOC23CCN(C(=O)Nc2ccccc2)CC3F)c1 (racemic)
testTarget: Orexin/Hypocretin receptor type 1 (Homo sapiens, UniProt O43613)
unitAbbrev: nM
IC50: 2300

A. O=C(Nc1ccccc1)N1CCC2(CC1)OCCN2S(=O)(=O)c1ccccc1
B. O=C(Nc1ccccc1)N1CCC2(OCCN2S(=O)(=O)c2ccccc2)[C@@H](F)C1 (mixture of isomers)
Data request: // compare measured IC50 between A and B ; output the lower one Your choice should be expressed through its label.
Data returned: B

---

biological target: Orexin receptor type 2 (Homo sapiens); assay: Antagonist activity at OX2R expressed in dihydrofolate reductase deficient CHO cells assessed as inhibition of orexin A-induced intracellular calcium mobilization by FLIPR assay; type: functional, cell-based
Sequence (O43614 whole entry): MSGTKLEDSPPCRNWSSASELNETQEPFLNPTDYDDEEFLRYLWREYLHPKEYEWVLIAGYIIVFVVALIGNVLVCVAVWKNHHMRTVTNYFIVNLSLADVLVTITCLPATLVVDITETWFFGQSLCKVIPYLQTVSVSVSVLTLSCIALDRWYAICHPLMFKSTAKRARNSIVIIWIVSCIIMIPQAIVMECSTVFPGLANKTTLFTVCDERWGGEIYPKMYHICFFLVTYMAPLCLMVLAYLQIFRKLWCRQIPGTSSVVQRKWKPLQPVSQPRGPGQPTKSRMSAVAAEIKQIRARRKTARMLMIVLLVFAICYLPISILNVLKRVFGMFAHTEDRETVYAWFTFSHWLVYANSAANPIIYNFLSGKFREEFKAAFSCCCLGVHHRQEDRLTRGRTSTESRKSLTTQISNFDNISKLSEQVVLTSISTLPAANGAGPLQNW
pIC50: −log10 of the molar value.
metric: pIC50

Solved cases (5 shown):
compound: O=C(Nc1ccccc1)N1CCC2(OCCN2S(=O)(=O)c2ccccc2)[C@H](F)C1 (mixture of isomers)
assayResult: 6.77

compound: COc1cccc(S(=O)(=O)N2CCOC23CCN(C(=O)Nc2ccccc2)CC3F)c1 (racemic)
assayResult: 6.89

compound: O=S(=O)(c1ccccc1)N1CCOC12CCN(c1cnc3ccccc3n1)CC2
assayResult: 6.64

compound: COc1ccc(S(=O)(=O)N2CCOC23CCN(C(=O)Nc2ccccc2)CC3F)cc1 (racemic)
assayResult: 7.06

compound: O=C(Nc1ccccc1)N1CCC2(CC1)OCCN2S(=O)(=O)c1ccccc1
assayResult: 6.15

a. COc1ccc(S(=O)(=O)N2CCOC23CCN(C(=O)Nc2ccccc2)CC3F)cc1OC (stereo not drawn)
b. O=C(Nc1ccccc1)N1CCC2(OCCN2S(=O)(=O)c2ccccc2)C(F)(F)C1 (racemic)
c. O=C(Nc1ccccc1)N1CCC2(OCCN2S(=O)(=O)c2ccccc2)[C@@H](F)C1 (mixture of isomers)
Data request: Descending sort on pIC50 required. Provide the ranking by listing each label in its place in the requested order.
Data returned: a, c, b
(a: 8.48, c: 6.66, b: 6.00)

---

test: Selectivity ratio of IC50 for OX1R to IC50 for OX2R
metric: Ratio IC50

molecule: COc1cccc(S(=O)(=O)N2CCOC23CCN(C(=O)Nc2ccccc2)CC3F)c1 (racemic)
Ratio IC50: 18

a. COc1ccc(S(=O)(=O)N2CCOC23CCN(C(=O)Nc2ccccc2)CC3F)cc1 (racemic)
b. O=C(Nc1ccccc1)N1CCC2(OCCN2S(=O)(=O)c2ccccc2)[C@H](F)C1 (mixture of isomers)
c. O=C(Nc1ccccc1)N1CCC2(CC1)OCCN2S(=O)(=O)c1ccccc1
Data request: Descending sort on Ratio IC50 required. Provide the ranking by listing each label in its place in the requested order.
Data returned: a, c, b

The reported measurements were obtained from ChEMBL document CHEMBL1909547.
